Tested on: MS2 coat protein
assay-explanation: apparent KD of MS2 coat protein; designed switch direction (-1 OFF switch, 1 ON switch): 1; higher = weaker reporter binding
assay-setup: input ligand: microRNA oligo, concentration not stated
quantity-measured: apparent KD of MS2 coat protein (nM)
# number only, unit nM dropped from output

Field request: apparent KD of MS2 coat protein | item: UGUUGUAUUACAGGAUAUCUAUUGUUAUUAUUUAGAGAAGGGUAUUCACAUGAGGAUCACCCAUGUAUAUACGAGGAAGUUGUG [JMF's solution 74] (Eterna round: R96, puzzle: Same State NG 1)
33

Please give the result for AAUUGUUCCUGAGGAUAUCAGUAGUUUGCUUUUUGAGAAGGCAGUACAUGAGGAUCACCCAUGUUGUGGUUUGAUAGAAUGAUA [JR_SSNG1_Sub005] (Eterna round: R96, puzzle: Same State NG 1) too.
101

Please give the result for ACAUGAGAGAUAGGAUAUCUUGUACCUACAUGUGACAUGAGGAUCACCCAUGUGGUAAGUAUGAGGGAGAAGGGUCAGAUAUGU [Equivalence 45 - Jieux - Same State NG 2] (Eterna round: R96, puzzle: Same State NG 2) too.
42.7

Please give the result for AGUCAAGACAUGAGGAUCACCCAUGUUGGGAACAUGGAGGACGAGGAUAUGUGUCGAUAUGUGACGUAGAAGGCGUCAGACAAA [Eternabot solution 33] (Eterna round: R96, puzzle: Same State NG 3) too.
224

Please give the result for UUGAAGAAUUAAGGAUAUUGAAUACAUAUGUUUAACAUGAGGAUCACCCAUGUGGGUUGCGGUAUCGAGAAGGUAAAUUAAAAG [Mat - Same State NG 2 - JL mod - D2] (Eterna round: R96, puzzle: Same State NG 2) too.
179

Please give the result for AAACAUGAGGAUCACCCAUGUCGAUCAGAACUCUGAUCUGCUCAGGAUAUCCGAAUGCGCGUUUCGGAGAAGGGAGAAAUGUGA [Lareraedqu] (Eterna round: R96, puzzle: Same State NG 3) too.
36.4

Please give the result for UGAAUGGUGAUAGGAUAUACAUGAGGAAUCCUCGUAGAAGGAUCACGACAUGAGGAUCACCCAUGUAGCCGUCCGUAGACGGCC [salish99_SSNG1_r04_002] (Eterna round: R96, puzzle: Same State NG 1) too.
89.6

Please give the result for AAAAGAACCACAGGAUAUACACUCCUAGCGGCGGUAGAAGGGUGGAACAUGAGGAUCACCCAUGUACGUCUGGAAUCAGACUAA [Radianis] (Eterna round: R96, puzzle: Same State NG 1) too.
233

Please give the result for GGGAGAGGCGCAGGAUAUGGUGAGGAUCACCCACUAGAAGGGUGCACAUGAGAAUCGAACAUGAGGAUCACCCAUGUUCUGAGC (Eterna round: R96, puzzle: Same State NG 1) too.
162

Please give the result for GGUGGGUUGCUGCCGGCACAUGAGGAUCACCCAUGUUUUGGGAAGGAUAUGGUACCUUUUUGGUGCCAGAAGGUCCCGUUGGUG [salish99_SSNG3_r04_712 large U pivot] (Eterna round: R96, puzzle: Same State NG 3) too.
350

Please give the result for GUUACAUGAGGAUCACCCAUGUAUGUGUGGGAGUAAGUGUCUUAGGAUAUCUAGUAUUUAAGUUAAGAGAAGGAAGAUUGUUGU [JMF's solution 62] (Eterna round: R96, puzzle: Same State NG 3) too.
78

Please give the result for UGUUGUAUUACAGGAUAUCUAUUAGUUUUAUUUAGAGAAGGGUAUUCACAUGAGGAUCACCCAUGUAUAUACGAGGAAGUUGUG [JMF's solution 14] (Eterna round: R96, puzzle: Same State NG 1) too.
42.2

Please give the result for AUUAUGAAUGCAGGAUAUGAUUAACAUGAGGAUCACCCAUGUGGUGUUGUGAGUAAGGAGAGUGAUCAGAAGGGCAUUUUUUUU [JMF's solution 25] (Eterna round: R96, puzzle: Same State NG 2) too.
465

Please give the result for CCAUAGUACAAUUUAGAUCUACAUGAGGAUCACCCAUGUACUGAGGAUAUCAGCUCGAUUAGAGCUGAGAAGGCAGAAUUAAUU [SSNG3/5-A2] (Eterna round: R96, puzzle: Same State NG 3) too.
96.8

Please give the result for GUGGUCAGACAUGAGGAUCACCCAUGUGGAAUAAAUAACGGUGAGGAUAUCGAAUAUAGGAUAUACGAGAAGGCAUGAUUGGUG (Eterna round: R96, puzzle: Same State NG 3) too.
93.3

Please give the result for AUUAAACAUGAGGAUCACCCAUGUCAACAAAGUCGAGGAUAUGGGCAAAUAAAAUAAGAACCAGAAGGCGAAUAAU [salish99_ss1_r3_048] (Eterna round: R96, puzzle: Same State 1) too.
193

Please give the result for ACUCAGUACAAUUUAGAUCUACAUGAGGAUCACCCAUGUACUGAGGAUAUCAGCUCGUUUAGAGCUGAGAAGGCAGUUGUACUA [SSNG3/10-A3] (Eterna round: R96, puzzle: Same State NG 3) too.
221

Please give the result for GUGGUCAGACAUGAGGAUCACCCAUGUGGAAUAAAUAAGGCAUAGGAUAUAAAAUAUAGGAUAUAUUAGAAGGAUGGGUUGGUG (Eterna round: R96, puzzle: Same State NG 3) too.
83.7
